assay: Pharmacokinetics in hGLP-1R mice after oral dosing; type: in vivo, male C57BL/6J hGLP-1R mouse; details: male, C57BL/6J hGLP-1R, mouse, plasma, po, 0.3 mg/kg, hGLP-1R mouse plasma, PO 0.3 mg/kg, mean; read-out: MRT0-inf
Documented MRT inf across a set of compounds
Reply with just the number (in h).

| COMPOUND | RECORDED RESULT |
| --- | --- |
| N#Cc1ccc(COc2cccc(C3CCN(Cc4nc5ccc(C(=O)O)cc5n4Cc4cncs4)CC3)n2)c(F)c1 | 1.7 |

// moving on: another record for MRT inf
### Prompt Entry N#Cc1ccc(COc2cccc(C3CCN(Cc4nc5ccc(C(=O)O)cc5n4C[C@@H]4CCO4)CC3)n2)c(F)c1 [Reference Compound A, reference compound] : reported MRT inf = ?
### Response 1.04
